Data origin, for the record: patent US20220402882A1

Documented percentage damage caused to the plant, IPOHE across a set of compounds
System: Ipomoea hederacea (IPOHE)
Assay: Post-emergence glasshouse herbicide test
Assay type: in vivo
Conditions: 125 g/h, evaluated after 13 days
Method: Seeds of a variety of test species are sown in standard soil in pots (Lolium perenne (LOLPE), Amaranthus retoflexus (AMARE), Abutilon theophrasti (ABUTH), Setaria faberi (SETFA), Echinochloa crus-galli (ECHCG), Ipomoea hederacea (IPOHE)). […] After 13 days for pre- and post-emergence, the test is evaluated for the percentage damage caused to the plant. […]
QUANTITY MEASURED: percentage damage caused to the plant, IPOHE

>  <COMPOUND>
CC[S+]([O-])c1c(OCC(F)(F)F)ccc(C(=O)Nc2nnnn2C)c1C (stereo not shown)

>  <RESULT>
4 (4=60-79%)

$$$$
>  <COMPOUND>
CCSc1c(OCC(F)(F)F)ccc(C(=O)Nc2nnnn2C)c1Cl

>  <RESULT>
3 (3=40-59%)

$$$$
>  <COMPOUND>
Cc1c(C(=O)Nc2nnnn2C)ccc(OC(F)(F)F)c1S(C)(=O)=O

>  <RESULT>
5 (5=80-100%)

$$$$
>  <COMPOUND>
CCS(=O)(=O)c1c(OCC(F)(F)F)ccc(C(=O)Nc2nnc(C)o2)c1C

>  <RESULT>
5 (5=80-100%)

$$$$

---

test system: Abutilon theophrasti (ABUTH); assay: Post-emergence glasshouse herbicide test; type: in vivo; conditions: 125 g/h, evaluated after 13 days
QUANTITY MEASURED: percentage damage caused to the plant, ABUTH

>  <COMPOUND>
CCS(=O)(=O)c1cc(C(=O)Nc2nnc(C)o2)ccc1OC(F)(F)F

>  <TGT>
Abutilon theophrasti (ABUTH)

>  <RESULT>
4 (4=60-79%)

$$$$
>  <COMPOUND>
CCn1nnnc1NC(=O)c1ccc(OC(F)F)c(S(=O)(=O)CC)c1Cl

>  <TGT>
Abutilon theophrasti (ABUTH)

>  <RESULT>
5 (5=80-100%)

$$$$
>  <COMPOUND>
CCSc1c(OC(F)(F)F)ccc(C(=O)Nc2nnnn2C)c1Cl

>  <TGT>
Abutilon theophrasti (ABUTH)

>  <RESULT>
5 (5=80-100%)

$$$$
>  <COMPOUND>
CCS(=O)(=O)c1c(OC(F)F)ccc(C(=O)Nc2nnnn2C)c1C

>  <TGT>
Abutilon theophrasti (ABUTH)

>  <RESULT>
5 (5=80-100%)

$$$$
>  <COMPOUND>
CCSc1c(OC(F)(F)F)ccc(C(=O)Nc2nnc(C)o2)c1Cl

>  <TGT>
Abutilon theophrasti (ABUTH)

>  <RESULT>
5 (5=80-100%)

$$$$
>  <COMPOUND>
CCn1nnnc1NC(=O)c1ccc(OC(F)(F)F)c(S(=O)(=O)CC)c1Cl

>  <TGT>
Abutilon theophrasti (ABUTH)

>  <RESULT>
5 (5=80-100%)

$$$$
>  <COMPOUND>
CCSc1c(OC(F)(F)F)ccc(C(=O)Nc2nnnn2C)c1C

>  <TGT>
Abutilon theophrasti (ABUTH)

>  <RESULT>
5 (5=80-100%)

$$$$
>  <COMPOUND>
CCS(=O)(=O)c1c(OC(F)(F)F)ccc(C(=O)Nc2nnc(C)o2)c1C

>  <TGT>
Abutilon theophrasti (ABUTH)

>  <RESULT>
5 (5=80-100%)

$$$$
>  <COMPOUND>
CC[S+]([O-])c1c(OCC(F)(F)F)ccc(C(=O)Nc2nnnn2C)c1Cl (stereo not drawn)

>  <TGT>
Abutilon theophrasti (ABUTH)

>  <RESULT>
5 (5=80-100%)

$$$$
